These measurements were taken from ChEMBL document CHEMBL1126161.

# tgt: Thromboxane-A synthase (Homo sapiens)
# Sequence (P24557 whole entry): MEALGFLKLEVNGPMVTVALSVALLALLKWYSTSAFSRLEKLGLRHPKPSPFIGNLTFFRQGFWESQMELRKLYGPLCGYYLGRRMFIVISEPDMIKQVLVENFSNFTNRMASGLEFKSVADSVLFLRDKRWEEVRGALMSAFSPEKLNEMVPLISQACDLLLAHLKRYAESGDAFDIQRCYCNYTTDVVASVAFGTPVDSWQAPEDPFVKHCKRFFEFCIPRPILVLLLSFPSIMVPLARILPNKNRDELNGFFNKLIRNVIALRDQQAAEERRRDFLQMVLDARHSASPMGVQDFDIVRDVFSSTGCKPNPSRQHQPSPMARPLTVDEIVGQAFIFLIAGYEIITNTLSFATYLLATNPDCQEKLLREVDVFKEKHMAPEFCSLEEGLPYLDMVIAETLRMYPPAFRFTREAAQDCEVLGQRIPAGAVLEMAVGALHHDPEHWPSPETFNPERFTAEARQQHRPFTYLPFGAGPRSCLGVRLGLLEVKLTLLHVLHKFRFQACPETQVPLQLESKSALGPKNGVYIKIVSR
# assay.procedure: Compound was evaluated for the inhibition of human blood platelet thromboxane A2 synthase
Documented pIC50 across a set of compounds
# pIC50: negative log10 of molar concentration; output just the value

CCCCCC(Cn1ccnc1)c1ccc2c(c1)CCC(=O)N2 (configuration not stated)    4.60

Now, please, on to the next compound.
So what does the record say about pIC50 for O=C1CCc2cc(/C=C/n3ccnc3)ccc2N1 ?
5.92

----------
# Test system: Rattus norvegicus
# assay.procedure: Antihypertensive activity in conscious spontaneously hypertensive rat (SHR), percent change in heart rate (beats/min) after 4 hr at 10 mg/kg peroral dose
# Format: functional
# conditions: route oral
endpoint: Change in heart rate (%)
Please reply with the bare figure in % and do not write the unit itself.

Record excerpt, results attached:
O=C1CCc2cc(C#CCn3ccnc3)ccc2N1    11
O=C1CCc2cc(C#Cc3cccnc3)ccc2N1    22
O=C1CCc2cc(/C=C/Cn3ccnc3)ccc2N1    14
O=C1CCc2cc(CCn3ccnc3)ccc2N1    12
O=C1CCc2cc(/C=C/c3cccnc3)ccc2N1    32
O=C1CCc2cc(/C=C/n3ccnc3)ccc2N1    25

So what does the record say about Change in heart rate for Cc1[nH]c(=O)c(C#N)cc1-c1ccncc1 ?
45
